# testedSystem: M. tuberculosis riboflavin synthase (recombinant) (Mycobacterium tuberculosis, UniProt P9WK35)
# Sequence (P9WK35 whole entry): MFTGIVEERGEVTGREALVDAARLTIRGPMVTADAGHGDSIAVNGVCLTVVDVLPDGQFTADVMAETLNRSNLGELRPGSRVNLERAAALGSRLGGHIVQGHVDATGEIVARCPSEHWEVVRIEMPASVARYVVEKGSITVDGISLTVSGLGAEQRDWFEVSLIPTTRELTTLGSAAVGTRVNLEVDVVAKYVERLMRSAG
# measurementProtocol: Kinetic assay of riboflavin synthase inhibitors, M. tuberculosis enzyme
# Format: biochemical
# testSettings: substrate 3 varied; Tris·HCl pH 7.0
Each entry gets rule not met if its Ks (substrate dissociation constant, E + S ⇌ ES) stays under 7 µM, and rule met if its Ks (substrate dissociation constant, E + S ⇌ ES) is 7 µM or above.

Take a look at these entries with their results.
> print(dat)
                                   compound  assignedcategory
1  CC(Cl)C(=O)Nc1c(NC[C@H](O)[C@H](O)[C@H](O)CO)[nH]c(=O)[nH]c1=O (some centres unmarked)          rule met
2  CCC(=O)Nc1c(OC[C@H](O)[C@H](O)[C@H](O)CO)[nH]c(=O)[nH]c1=O      rule not met
3  CCOC(=O)C(=O)Nc1c(OC[C@H](O)[C@H](O)[C@H](O)CO)[nH]c(=O)[nH]c1=O      rule not met
4  CC(C)C(=O)Nc1c(OC[C@H](O)[C@H](O)[C@H](O)CO)[nH]c(=O)[nH]c1=O          rule met
5      C=C(C)C(=O)Nc1c(Cl)[nH]c(=O)[nH]c1=O          rule met

// switching to the query compound
Check the entry "CCC(=O)Nc1c(SC[C@H](O)[C@H](O)[C@H](O)CO)[nH]c(=O)[nH]c1=O" : does Ks (substrate dissociation constant, E + S ⇌ ES) equal or exceed 7 µM?
rule met
